Experiment: P. aeruginosa biofilm formation inhibitors, primary screen, PAO1 strain, BacTiter-Glo luminescence, LB-PBS (AID 1144)
Details: 12 h, higher = more signal
# key: entry, value: z-score
Attribute measured: z-score

INSERT INTO results (molecule, measured) VALUES
  ('CC(c1ccccc1)C(O)C1C=CC2C(=O)N(C)C(=O)C2N1N(c1ccccc1)c1ccccc1 (configuration not stated)', -0.131),
  ('CCOC(=O)C[C@H]1[C@H](OC(=O)Cc2ccc3c(c2)OCO3)[C@@H](NC(=O)c2ccc3ccccc3c2)c2cc(OCCCO)ccc2N1C(=O)Cc1ccc(OC)cc1', -0.0536),
  ('[N-]=[N+]=NCc1ccccc1C[C@]1(C(=O)N2CCCCC2)N=C(c2ccc(OCCCO)cc2)O[C@H]1c1ccccc1CN=[N+]=[N-]', 0.447),
  ('COc1cc(CO)cc(I)c1O[C@H]1C=C(C(=O)NCCO)C[C@@H](N(CC2CCCCC2)C(=O)c2cc3ccccc3oc2=O)[C@@H]1O', -0.143),
  ('NC(=O)NCC#Cc1ccc2c(c1)[C@]1(C(=O)N2)[C@H](c2ccccc2OCCO)N2[C@H](c3ccccc3)[C@H](c3ccccc3)OC(=O)[C@H]2[C@@H]1C(=O)N1CCN(c2ncccn2)CC1', -0.681),
  ('C=C(CCCC)C(=O)CC[C@@H](OC(C)=O)c1ccccc1OCCO', -0.206),
  ('O=C(NCC(F)(F)F)[C@@H]1c2ccccc2C(=O)N(Cc2ccccc2Cl)[C@H]1c1ccc(CO)cc1', 0.072);
